Assay: Half life in guinea pig at 40 mg/kg, administered via intratracheal insufflation by HPLC method
Format: ADME, organism-based, Cavia porcellus
Parameters: dose 40 mg/kg, route endotracheal
Settings: in vivo, inhaled or intranasal
assay endpoint: half-life (h)

- molecule: "O=[N+]([O-])c1cn2c(n1)OC[C@@H](OCc1ccc(OC(F)(F)F)cc1)C2 [PRETOMANID]"
  assay endpoint: "half-life"
  endpoint result: 4.38

---

Assay: Cmax in guinea pig at 60 mg/kg, administered via intratracheal insufflation by HPLC method
Assay type: ADME, organism-based, Cavia porcellus
Set-up: dose 60 mg/kg, route endotracheal
Conditions: in vivo, inhaled or intranasal

- compound: "O=[N+]([O-])c1cn2c(n1)OC[C@@H](OCc1ccc(OC(F)(F)F)cc1)C2 [PRETOMANID]"
  units text: "ng/mL"
  Cmax: 4580
